system: TMD8 cells expressing PIM1 P81S; assay: Cell growth of modified TMD8 cells treated with ibrutinib; settings: Homo sapiens
pEC50: −log10 of the molar value.
Measurement Type: pEC50

**Q:** Look up pEC50: `C=CC(=O)N1CCC[C@@H](n2nc(-c3ccc(Oc4ccccc4)cc3)c3c(N)ncnc32)C1`
**A:** < 6.00

* * *

test system: TMD8 cells expressing PIM1-WT; experiment: Cell growth of modified TMD8 cells treated with ibrutinib; conditions: Homo sapiens
Measurement Type: pEC50
On this scale, pEC50 is minus log10 of a concentration expressed in M (mol/L).

**Q:** I am curious: what pEC50 value has been reported for `C=CC(=O)N1CCC[C@@H](n2nc(-c3ccc(Oc4ccccc4)cc3)c3c(N)ncnc32)C1` ?
**A:** 7.12
